Target: LHRH (Rattus norvegicus)
Construct: endogenous in cells; host or cells: rat pituitary cells (own knowledge of the cited Haviv 1989 method)
Sequence (P30969 whole entry): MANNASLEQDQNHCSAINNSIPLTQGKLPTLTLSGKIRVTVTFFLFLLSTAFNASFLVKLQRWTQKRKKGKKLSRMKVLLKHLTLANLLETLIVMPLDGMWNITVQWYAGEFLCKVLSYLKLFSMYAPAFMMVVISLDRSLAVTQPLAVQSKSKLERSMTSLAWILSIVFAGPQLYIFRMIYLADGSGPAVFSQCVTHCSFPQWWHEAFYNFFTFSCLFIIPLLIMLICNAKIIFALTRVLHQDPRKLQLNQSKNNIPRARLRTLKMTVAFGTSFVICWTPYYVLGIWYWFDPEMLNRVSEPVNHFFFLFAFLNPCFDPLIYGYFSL
Assay: in vitro test for LHRH antagonist potency (pA2)
Type: cell-based
Settings: negative logarithm of the antagonist concentration required to shift the response curve produced by the agonist leuprolide to two-fold higher concentration
Non-standard residues stand in square brackets, D forms with d. Residues, ends and D or L forms follow the SMILES beside them. *: point of attachment. dAla(benzothien-2-yl) = N[C@H](Cc1cc2ccccc2s1)C(=O)O; Shikimoyl = O=C(C1=C[C@@H](O)[C@@H](O)[C@H](O)C1)*; dPhe(4-Cl) = N[C@H](Cc1ccc(Cl)cc1)C(=O)O; d2Nal = N[C@H](Cc1ccc2ccccc2c1)C(=O)O; Lys(iPr) = CC(C)NCCCC[C@H](N)C(=O)O; NMeY = CN[C@@H](Cc1ccc(O)cc1)C(=O)O; dCit = NC(=O)NCCC[C@@H](N)C(=O)O; d3Pal = N[C@H](Cc1cccnc1)C(=O)O; Nicotinoyl = O=C(c1cccnc1)*; 2Furoyl = O=C(c1ccco1)*; azaGly = NNC(=O)O
Each entry below carries its reported Kb.
property name: Kb (nM)

1. CC(C)C[C@H](NC(=O)[C@@H](CCCNC(N)=O)NC(=O)[C@H](Cc1ccc(O)cc1)N(C)C(=O)[C@H](CO)NC(=O)[C@@H](Cc1cccnc1)NC(=O)[C@@H](Cc1ccc(Cl)cc1)NC(=O)[C@@H](Cc1ccc2ccccc2c1)NC(=O)C1=C[C@@H](O)[C@@H](O)[C@H](O)C1)C(=O)N[C@@H](CCCNC(=N)N)C(=O)N1CCC[C@H]1C(=O)N[C@H](C)C(N)=O [Example 78c] (Shikimoyl-[d2Nal][dPhe(4-Cl)][d3Pal]S[NMeY][dCit]LRP[dA]-NH2)
0.0132
2. CC(C)C[C@H](NC(=O)[C@@H](CCCCNC(=O)c1cccnc1)NC(=O)[C@H](Cc1ccc(O)cc1)N(C)C(=O)[C@H](CO)NC(=O)[C@H](Cc1cccnc1)NC(=O)[C@@H](Cc1ccc(Cl)cc1)NC(=O)[C@@H](Cc1ccc2ccccc2c1)NC(=O)CNC(=O)[C@@H]1CCCO1)C(=O)N[C@@H](CCCCNC(C)C)C(=O)N1CCC[C@H]1C(=O)N[C@H](C)C(N)=O [Example 83]
0.0112
3. CC(C)C[C@H](NC(=O)[C@@H](CCCCNC(=O)c1cccnc1)NC(=O)[C@H](Cc1ccc(O)cc1)N(C)C(=O)[C@H](CO)NC(=O)[C@@H](Cc1cc2ccccc2s1)NC(=O)[C@@H](Cc1ccc(Cl)cc1)NC(=O)NNC(=O)c1ccco1)C(=O)N[C@@H](CCCCNC(C)C)C(=O)N1CCC[C@H]1C(=O)N[C@H](C)C(N)=O [Example 33a] (2Furoyl-[azaGly][dPhe(4-Cl)][dAla(benzothien-2-yl)]S[NMeY][dK](Nicotinoyl)L[Lys(iPr)]P[dA]-NH2)
0.00631
